- procedureSummary: label from the status in PepcDB records
observable: protein production

| recordSequence | protein production |
| --- | --- |
| MHLWWRYHLATIIILFAMILTIYFLVPPLFYIEIIGVIFILFLWYIISPGILLRVIKSKKVENEDVLRKFEYALALVQMKKIKLHEINSSKPNAFVLGNFLSYNVIVTRGLLESLNDRELISVLLHELHHIKNRDIEIQLIYVLIVNTFYIYIANYNPLLGLSELVIGVVLLFPVHRLLEKNADIKACRTTNWIPLNLANALVKIGYLSRFLPHEIIRDYSEVDLTLAKETILRDDKKGFIFSTHPALSERLKYISKFIKTL | failed |
| MSLFKRSVVSEITSHAGVVFSTLVVVWLSVLLVRLLGEAAGGSIGADVVLGLAAFSTITALPTILAVSLFIAVLTTVTRNYRESEMVVWFASGLSLADWLRPVARVAVPIAMLVAALTLVASPWAYRQIGEYRERFEQRSDLSKVTAGQFAESGRGDRVFFAEDPVRPGDELGAVFARSIDPEWLSVLTASNARSETLPNGDRFLVLGEGHRYDLKPGTPEIRLVNFDQYGVRLESKAGEDPMAEARAAAERFSKARSTMQLVQDNTDSSWSQIMWRVAMPLAALNLALLAIPLGAVNPRLGRSGDLLIAGLVGLLYMNMINLSRAWISSGKISFSIGVWAVHAVVALLAAYLLMRRLRVKAPRNAGRGA | failed |
| MNRMMALVMAGGRGTRLAIDCEKPLLEVAGRPMIDHVLEALESATGVDGIIVVTSPHTPMTEDHVRGRHPIFRASGGGYVEDLREVLSHLEESYHEPLLVINSDLPLVRPSTIDWIISSYHSCPEPAMCVAVPDDLCRRHGLDFSGSLDGLVPCGVNILMSKNRVQEQRILEASMLELAVNINSCRDLKVLEKILGEIDGREEAHKRGREVLELEHHHHHH | not failed |
| MEQPMKPTVIITGASSGVGLYGAKALIDKGWHVIMACRNLDKTQKVADELGFPKDSYTIIKLDLGYLDSVRRFVAQFRELGRPLKALVCNAAVYFPLLDEPLWSADDYELSVATNHLGHFLLCNLLLEDLKACPDADKRLIILGTVTANSKELGGKIPIPAPPDLGNFEGFEAGFKKPIAMINNKKFKSGKAYKDSKLCNMLTTRELHRRFHQETGIVFNSLYPGCVADTPLFRNHYSLFRTIFPWFQKNVTKGYVSQELAGERVAMVVADDKFKDSGVHWSWGNRQQAGREAFVQELSEQGSDAQKAQRMWDLSEKLVGLV | failed |
| MENDSSIQWEHSHDFGLDNKLHENKVKTVFWLTTVIMVLEIGAGTWSGSMALLADGWHMGTHSAAFLIAIFAYSYAKKHANNKDFSFGTGKVNSLGGFASAIALAIVALMMIVESVQRLLEPQSIHFNEAIVVAIIGLVVNVASVFILHDDHHHHGEHHHDHDHNMKAAYFHVLADTLTSLLAIVALLIGKYVGLIWMDPLMGIVGAIVILRWSYGLIKDSSNVLLDKSVKKSTLEQISKALSKKNTVINDIHVWTIATAHQAAILKVTSAQPLNSDEYEGILREILPQLSHISIEIRHDYSL | failed |

Query :: Fill in the blank: the reported protein production of MNIMEIEKTNRMNALFEFYAALLTDKQMNYIELYYADDYSLAEIADEFGVSRQAVYDNIKRTEKILETYEMKLHMYSDYVVRSEIFDDMIAHYPHDEYLQEKISILTSIDNRE is ____.
Result :: not failed

Value source: a protein production outcome set (Wang et al. 2014)
